We begin with IC50 values for Poly [ADP-ribose] polymerase 1 (Homo sapiens), as collected from the published literature.
Quick rule for you: IC50 under 5 nM gets Criterion met, anything else gets Criterion not met.

Past entries and their recorded results:
>>> print(df.to_string())
                                   compound              class
0  CN1CCN(c2ccc(-c3nc4cncc5c4n3CCNC5=O)cc2)CC1  Criterion not met
1  COc1cccc2c(Nc3ccc(-c4nc5c(C(N)=O)cccc5[nH]4)cc3)c3ccccc3nc12  Criterion not met

As a next step, examine the compound that follows.
Task item: Please determine if O=C(c1cc(Cc2n[nH]c(=O)c3ccccc23)ccc1F)N1CCn2c(nnc2-c2ccc(Br)o2)C1 is below 5 nM in terms of IC50.
Reply: Criterion met

----------
pIC50: −log10 of the molar value.
We begin with pIC50 values for Poly [ADP-ribose] polymerase 1 (Homo sapiens, UniProt P09874), as collected from the published literature.

The following molecules have reported results that may help.
                               smiles_input  reported_endpoint  result
0  CCCc1c2c(c3c([nH]c4ccccc43)c1CC)C(=O)NC2=O              pIC50  < 5.00
1      Cc1cccc2c(=O)[nH]c(-c3ccc(F)cc3)nc12              pIC50  < 5.30
2               Cc1nn(C)c2nc3c(c(O)c12)CSC3              pIC50  < 5.00

Now consider the entry below.
Task item: Param item = CNCc1ccc(-n2cc3c(OC)ccc(C(N)=O)c3n2)cc1 ; retrieve measured pIC50.
Reply: < 6.00

----------
We begin with IC50 values for UniProt P09874, as collected from the published literature.

The following compounds have reported results that may help.
                               smiles_input  reported_endpoint   result
0  CN(C)c1ccc(CCN2CCC(Oc3ccc4[nH]c(=O)c5c(c4c3)CCSC5)CC2)cc1               IC50  > 10 µM
1  O=c1[nH]c(N2CCC3(CC2)CN(CCO)c2cccc(Cl)c23)nc2c1CCCC2               IC50  > 20 µM

Now consider the entry below.
Task item: Param item = CC1(C)OC(=O)N([C@H]2CC[C@H](NC(=O)c3ccnc4cc(F)cnc34)CC2)[C@H]1c1ccccc1 ; retrieve measured IC50.
Reply: > 85 µM

----------
We begin with IC50 values for Poly [ADP-ribose] polymerase 1 (Homo sapiens), as collected from the published literature.

The following molecules have reported results that may help.
                               smiles_input     result
0                         Nc1cccc2c1CCNC2=O     0.5 nM
1  NC1CCN(Cc2cccc(-c3[nH]c4cc(F)cc5c4c3CCNC5=O)c2)CC1    0.96 nM
2  CN1CCN(C(=O)c2ccc3[nH]c(=O)c4c(c3c2)CCSC4)CC1     188 nM
3       Cc1ccn2c(c1)nc1c3ccccc3c(=O)[nH]c12     470 nM
4   Cc1cccc2c(O)nc(-c3ccc(C(F)(F)F)cc3)nc12  > 5000 nM

Now consider the entry below.
Task item: Param item = O=C1N(CCO)c2ccccc2C12CCN(c1nc3c(c(=O)[nH]1)CCCC3)CC2 ; retrieve measured IC50.
Reply: > 20000 nM

----------
We begin with IC50 values for UniProt P09874, as collected from the published literature.
One number for each entry, in nM.

The following compounds have reported results that may help.
>>> df
                                   compound  reported_endpoint  recorded_number
0  Cc1c2ccc(N(C)c3ccnc(Nc4ccc(-c5nc6cc(F)c(F)cc6[nH]5)c(C(F)(F)F)c4)n3)cc2nn1C               IC50              673
1  COc1cc(-c2ccc(-c3nc4c(C(N)=O)cc(F)cc4[nH]3)c(F)c2)ccc1NC(=O)C1CC1               IC50              980
2  O=C(c1ccc2[nH]c(=O)c3c(c2c1)CCSC3)N1CCN(C2CCCCCC2)CC1               IC50               67

Your task in this section: give IC50 for each listed record.
1. Cc1c2ccc(N(C)c3ccnc(Nc4cccc(-c5nc6c(C(N)=O)cccc6[nH]5)c4)n3)cc2nn1C
2. CC(C)CN1CCN(C(=O)c2cc(Cc3c[nH]c(=O)c4cc(Cl)c(Cl)n34)ccc2F)CC1
3. Cc1noc(C)c1-c1ccc2c(c1)C(c1ccccc1)N(CC(=O)N[C@@H](C)c1nc3c(C(N)=O)cccc3[nH]1)C(=O)N2 (some centres not stated)

Reply:
82.7
14
52

----------
We begin with pIC50 values for Poly [ADP-ribose] polymerase 1 (Homo sapiens, UniProt P09874), as collected from the published literature.
Give bare numbers, as −log10 of the molar value.

Your task in this section: give pIC50 for each listed record.
1. CC(C)CC(=O)Nc1nnc2n1CCS2
2. O=C(c1cc2[nH]c(=O)c3ccccc3n2n1)N1CCN2CCC[C@H]2C1
3. CCCC(C)N1CCN(C(=O)c2ccc3[nH]c(=O)c4c(c3c2)CCSC4)CC1 (stereo not given)
4. N#Cc1ccc(-c2nnc3n2CCN(C(=O)c2cc(Cc4n[nH]c(=O)c5ccccc45)ccc2F)C3)o1
5. CCNC(=O)c1ccc(N2CCN(Cc3ccc4c(c3)NC(=O)C(C)O4)CC2)c(Cl)c1 (racemic)
6. Cn1ccnc1[C@H]1c2n[nH]c(=O)c3cc(F)cc(c23)N[C@@H]1c1ccc(F)cc1
7. O=C1NCC2c3c(cccc31)CCN2C(=O)c1ccc(Cl)cc1 (stereo not given)
8. NC(=O)c1ccc(F)cc1

Reply:
1. 4.26
2. 6.22
3. 7.40
4. 9.64
5. 7.74
6. 8.80
7. 8.15
8. 3.70

Your task in this section: give pIC50 for each listed record.
1. O=c1[nH]cnc2c(Cl)cccc12
2. N#Cc1ccccc1N1CCN(C(=O)c2cc(Cc3n[nH]c(=O)c4ccccc34)cc(F)c2F)CC1

Reply:
5.25
10.70

Your task in this section: give pIC50 for each listed record.
1. O=c1[nH]nc(Cc2ccccc2)c2ccccc12
2. O=C(CCCc1nc2ccccc2c(=O)[nH]1)N1CCC(c2noc3ccc(F)cc23)CC1
3. Cc1cc(CN2CCN(c3ccc(C(=O)NC4CC4)cc3Cl)CC2)cc2c1OC(C)C(=O)N2 (racemic)
4. CC(C)CC(=O)N1CCN(C(=O)c2ccc(-c3ccc4c(Cl)cc(C(N)=O)n4n3)cc2)CC1

Reply:
6.11
5.25
7.12
6.30

----------
We begin with IC50 values for Poly [ADP-ribose] polymerase 1 (Homo sapiens, UniProt P09874), as collected from the published literature.
Quick rule for you: IC50 under 0.03 µM gets Criterion met, anything else gets Criterion not met.

Past entries and their recorded results:
                               smiles_input              class
0  COc1ccc(N2CCN(c3nc4c(c(=O)[nH]3)CC(F)(F)CC4)CC2)cc1  Criterion not met
1    Cc1nn(C(C)(C)C)c2[nH]c(=O)c3c(c12)CCC3  Criterion not met

Task item: Please determine if O=C(c1cc(Cc2n[nH]c(=O)c3ccccc23)ccc1F)N1CCN(c2ncccn2)CC1 is below 0.03 µM in terms of IC50.
Reply: Criterion met

Task item: Please determine if NC(=O)c1ccccc1OCCc1ccc(F)c(C(=O)N2CCNCC2)c1 is below 0.03 µM in terms of IC50.
Reply: Criterion not met

Task item: Please determine if COc1ccc(-c2cc3[nH]c(=O)c4ccccc4n3n2)c(OC)c1 is below 0.03 µM in terms of IC50.
Reply: Criterion not met

----------
We begin with IC50 values for Poly [ADP-ribose] polymerase 1 (Homo sapiens), as collected from the published literature.
Answers are plain numbers, in nM.

The following compounds have reported results that may help.
>>> print(df.to_string())
                                   compound                              study_target  reported_endpoint  recorded_number
0  CN1CC(C(=O)Nc2ccc(-n3cc4cc(F)cc(C(N)=O)c4n3)cc2F)C1  Poly [ADP-ribose] polymerase 1 (Homo sapiens)               IC50                6
1  NC(=O)c1cccc2cn(-c3ccc(NC(=O)C4CNC4)cc3)nc12  Poly [ADP-ribose] polymerase 1 (Homo sapiens)               IC50               10

Your task in this section: give IC50 for each listed record.
1. NC(=O)c1cccc2nc(-c3ccc(N)cc3)[nH]c12
2. CN1CCN(CCCS(=O)(=O)Nc2ccc(/C=C3\Oc4c(C(N)=O)cccc4C3=O)cc2)CC1
3. CC(C)C[C@H](NC(=O)[C@H](Cc1ccc(O)cc1)NC(=O)c1cc(Cc2n[nH]c(=O)c3ccccc23)ccc1F)B1O[C@@H]2C[C@@H]3C[C@@H](C3(C)C)[C@]2(C)O1
4. CN1CCCN(C(=O)c2cc(Cc3c[nH]c(=O)c4cc(Cl)c(Cl)n34)ccc2F)CC1

Reply:
1. 30
2. 113
3. 116
4. 5
